molecular target: T1, Claudin 18.2 (CLDN18.2), expressed on CHOS-CLDN 18.2 / HEK293-CLDN 18.2 / HCC827-CLDN 18.2 cells (human, UniProt P56856-2 1-261); assay: FACS, MFI on CHOS-CLDN18.2 over MFI on CHOS-CLDN18.1, 10 µg/ml
T1 construct: whole, on cells; The species is not repeated for the CHOS-CLDN 18.2 cells; also called claudin-18A2
Quantity Kind: CLDN18.2/CLDN18.1 (MFI ratio)

1. QP14491448 (antibody, human IgG1, kappa, V domains shown, Humanized from QP199200) VH: EVQLVESGGGLVQPGGSLRLSCAASGFTFSSFGMHWVRQAPGKGLEWVSYISSGSNSIYYVDTVKGRFTISRDNAKNSLYLQMNSLRDEDTAVYYCARNAYYGNSFDYWGQGTLVTVSS VL: DIVMTQSPDSLAVSLGERATISCKSSQSLLNSGNQKNYLTWYQQKPGQPPKLLIYWASTRESGVPDRFTGSGSGTVFTLTISSLQAEDVAVYFCQNNYYYPLTFGGGTKVEIKR | 487
